# Tested on: ANGPTL3 gene
# Measurement protocol: Example 4: serum HDL in mice
# Type: in vivo, C57bl/6 mice
# Particulars: Day 43, 1.0 mg/kg single SC injection on day 1, n=3
In the oligonucleotide strings, read from the 5' end, every base follows the letter of its sugar. An asterisk marks phosphorothioate; unmarked linkages are phosphodiester. Other units and linkages are bracketed, terminal groups are in braces. A string of capitals states the bases alone. {NAG37} = tridentate N-acetyl-galactosamine targeting ligand, structure (NAG37)s; [invAb] = inverted abasic unit; m = 2'-O-methyl; f = 2'-fluoro
Measured parameter: Avg HDL, normalized to pre-treatment and control

| Substance | Numeric value |
| --- | --- |
| AD05418: RNAi agent duplex: antisense AM07159-AS, sense AM07158-SS (antisense mU*fU*mU*fGmAfAmUfUmAfAmUfGmUfCmCfAmUfGmGfG*mU; sense {NAG37}*[invAb]*mAmCmCmCmAmUmGmGfAfCfAmUmUmAmAmUmUmCmAmAmA*[invAb]) | 1.018 |
| AD05308: RNAi agent duplex: antisense AM07003-AS, sense AM07002-SS (chain 1 mU*fG*mU*fUmGfAmAfUmUfAmAfUmGfUmCfCmAfUmGfG*mA; chain 2 {NAG37}*[invAb]*mUmCmCmAmUmGmGmAfCfAfUmUmAmAmUmUmCmAmAmCmA*[invAb]) | 1.096 |
| AD05487: RNAi agent duplex: antisense AM07233-AS, sense AM07232-SS (antisense mU*fA*mC*fUmGfAmUfCmAfAmAfUmAfUmGfUmUfGmAfG*mU; sense {NAG37}*[invAb]*mAmCmUmCmAmAmCmAfUfAfUmUmUmGmAmUmCmAmGmUmA*[invAb]) | 0.934 |
| AD05488: RNAi agent duplex: antisense AM07235-AS, sense AM07234-SS (antisense mU*fA*mC*fUmGfAmUfCmAfAmAfUmAfUmGfUmUfGmAfG*mC; sense {NAG37}*[invAb]*mGmCmUmCmAmAmCmAfUfAfUmUmUmGmAmUmCmAmGmUmA*[invAb]) | 0.833 |

---

Here the recorded Avg TG (Average Triglycerides Normalized to Pre-Treatment and Control) is given for each entry.
# System: ANGPTL3 gene
# Measurement protocol: Example 4: serum triglycerides in mice
# Assay type: in vivo
# Particulars: Day 15, 1.0 mg/kg single subcutaneous dose on day 1, female C57bl/6 mice
In the oligonucleotide strings, read from the 5' end, every base follows the letter of its sugar. An asterisk marks phosphorothioate; unmarked linkages are phosphodiester. Other units and linkages are bracketed, terminal groups are in braces. A string of capitals states the bases alone. {NAG37} = tridentate N-acetyl-galactosamine targeting ligand, structure (NAG37)s; [invAb] = inverted abasic unit; m = 2'-O-methyl; f = 2'-fluoro
Measured parameter: Avg TG (Average Triglycerides Normalized to Pre-Treatment and Control)

| Substance | Numeric value |
| --- | --- |
| AD05487: RNAi agent duplex: antisense AM07233-AS, sense AM07232-SS (antisense mU*fA*mC*fUmGfAmUfCmAfAmAfUmAfUmGfUmUfGmAfG*mU; sense {NAG37}*[invAb]*mAmCmUmCmAmAmCmAfUfAfUmUmUmGmAmUmCmAmGmUmA*[invAb]) | 0.912 |
| AD05418: RNAi agent duplex: antisense AM07159-AS, sense AM07158-SS (antisense mU*fU*mU*fGmAfAmUfUmAfAmUfGmUfCmCfAmUfGmGfG*mU; sense {NAG37}*[invAb]*mAmCmCmCmAmUmGmGfAfCfAmUmUmAmAmUmUmCmAmAmA*[invAb]) | 1.065 |
| AD05488: RNAi agent duplex: antisense AM07235-AS, sense AM07234-SS (antisense mU*fA*mC*fUmGfAmUfCmAfAmAfUmAfUmGfUmUfGmAfG*mC; sense {NAG37}*[invAb]*mGmCmUmCmAmAmCmAfUfAfUmUmUmGmAmUmCmAmGmUmA*[invAb]) | 0.795 |
| AD05308: RNAi agent duplex: antisense AM07003-AS, sense AM07002-SS (chain 1 mU*fG*mU*fUmGfAmAfUmUfAmAfUmGfUmCfCmAfUmGfG*mA; chain 2 {NAG37}*[invAb]*mUmCmCmAmUmGmGmAfCfAfUmUmAmAmUmUmCmAmAmCmA*[invAb]) | 1.164 |

---

# Tested on: ANGPTL3 gene
# Measurement protocol: Example 7: serum triglycerides in mice
# Assay type: in vivo, C57bl/6 mice
# Set-up: key: ratio: (level/pre-treatment day -1 level) ÷ mean of D5W control group
# Particulars: Day 22, 0.5 mg/kg single SC injection on day 1, n=3
In the oligonucleotide strings, read from the 5' end, every base follows the letter of its sugar. An asterisk marks phosphorothioate; unmarked linkages are phosphodiester. Other units and linkages are bracketed, terminal groups are in braces. A string of capitals states the bases alone. {NAG37} = tridentate N-acetyl-galactosamine targeting ligand, structure (NAG37)s; [invAb] = inverted abasic unit; m = 2'-O-methyl; f = 2'-fluoro
Measured parameter: Avg TG, normalized to pre-treatment and control

| Substance | Result |
| --- | --- |
| AD05488: RNAi agent duplex: antisense AM07235-AS, sense AM07234-SS (antisense mU*fA*mC*fUmGfAmUfCmAfAmAfUmAfUmGfUmUfGmAfG*mC; sense {NAG37}*[invAb]*mGmCmUmCmAmAmCmAfUfAfUmUmUmGmAmUmCmAmGmUmA*[invAb]) | 0.922 |
| AD05775: RNAi agent duplex: antisense AM07235-AS, sense AM07608-SS (antisense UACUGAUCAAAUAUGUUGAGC; sense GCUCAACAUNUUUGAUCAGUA; (NAG37)s GalNAc ligand; RNAi agent antisense strand modified sequence; RNAi agent sense strand modified sequence; modified_base 10 n = 2′-O-methyl-2-aminoadenosine-3′-phosphate) | 0.819 |
| AD05418: RNAi agent duplex: antisense AM07159-AS, sense AM07158-SS (antisense mU*fU*mU*fGmAfAmUfUmAfAmUfGmUfCmCfAmUfGmGfG*mU; sense {NAG37}*[invAb]*mAmCmCmCmAmUmGmGfAfCfAmUmUmAmAmUmUmCmAmAmA*[invAb]) | 0.815 |

---

# Test system: ANGPTL3 gene
# Measurement protocol: Example 4: serum HDL in mice
# Assay type: in vivo, C57bl/6 mice
# Particulars: Day 29, 1.0 mg/kg single SC injection on day 1, n=3
# Description: To assess the in vivo activity of ANGPTL3 RNAi agents that are designed to target additional positions on the ANGPTL3 gene, six- to eight-week-old female C57bl/6 mice were used. Pre-dose serum samples were taken at day −1 after a four hour fast. […]
In the oligonucleotide strings, read from the 5' end, every base follows the letter of its sugar. An asterisk marks phosphorothioate; unmarked linkages are phosphodiester. Other units and linkages are bracketed, terminal groups are in braces. A string of capitals states the bases alone. {NAG37} = tridentate N-acetyl-galactosamine targeting ligand, structure (NAG37)s; [invAb] = inverted abasic unit; m = 2'-O-methyl; f = 2'-fluoro
Measured parameter: Avg HDL, normalized to pre-treatment and control

| Substance | Numeric value |
| --- | --- |
| AD05487: RNAi agent duplex: antisense AM07233-AS, sense AM07232-SS (antisense mU*fA*mC*fUmGfAmUfCmAfAmAfUmAfUmGfUmUfGmAfG*mU; sense {NAG37}*[invAb]*mAmCmUmCmAmAmCmAfUfAfUmUmUmGmAmUmCmAmGmUmA*[invAb]) | 0.745 |
| AD05308: RNAi agent duplex: antisense AM07003-AS, sense AM07002-SS (chain 1 mU*fG*mU*fUmGfAmAfUmUfAmAfUmGfUmCfCmAfUmGfG*mA; chain 2 {NAG37}*[invAb]*mUmCmCmAmUmGmGmAfCfAfUmUmAmAmUmUmCmAmAmCmA*[invAb]) | 0.824 |
| AD05488: RNAi agent duplex: antisense AM07235-AS, sense AM07234-SS (antisense mU*fA*mC*fUmGfAmUfCmAfAmAfUmAfUmGfUmUfGmAfG*mC; sense {NAG37}*[invAb]*mGmCmUmCmAmAmCmAfUfAfUmUmUmGmAmUmCmAmGmUmA*[invAb]) | 0.771 |
| AD05418: RNAi agent duplex: antisense AM07159-AS, sense AM07158-SS (antisense mU*fU*mU*fGmAfAmUfUmAfAmUfGmUfCmCfAmUfGmGfG*mU; sense {NAG37}*[invAb]*mAmCmCmCmAmUmGmGfAfCfAmUmUmAmAmUmUmCmAmAmA*[invAb]) | 0.845 |
